# Study Target: T1, recombinant NT-proBMP10 (22-312) (human, UniProt O95393 22-312)
# T1 construct: In-house construct; also called pro-peptide BMP10; BMP10(312)
# T1 sequence: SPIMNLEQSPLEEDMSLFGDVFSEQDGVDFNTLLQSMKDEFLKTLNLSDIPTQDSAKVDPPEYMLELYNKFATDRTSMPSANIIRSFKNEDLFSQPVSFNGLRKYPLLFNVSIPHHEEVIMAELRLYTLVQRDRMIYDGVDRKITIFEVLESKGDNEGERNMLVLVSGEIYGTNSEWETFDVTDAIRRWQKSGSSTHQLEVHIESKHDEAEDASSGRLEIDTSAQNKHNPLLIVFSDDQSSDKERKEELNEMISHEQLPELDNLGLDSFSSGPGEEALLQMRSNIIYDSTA
# Procedure Text: SPR Biacore 8K, 37°C, bound analyte per mAb
Readout Type: MR (Molar Ratio)
Note: the reply should be a number with no unit written.

Tell me measured MR (Molar Ratio) for MAB<BMP10>rRb-2H8 HC7/LC6 (p10qv/p10qw)-IgG(SPA) (antibody, V domains shown, Recombinant rabbit monoclonal IgG; also called clone 2H8; VH-6/VL-6) VH: QSVEESGGRLVTPGTPLTLTCTASAFSLSRYVMSWVRQAPGKGLEFIGFINASGSTSYASWAKGRFTISKTSTTVDLKMTSLTTEDTATYFCATGNLWGPGTLVTVSS VL: DIVMTQTPSSVSGPVGGTVTINCQASQNIYSNLAWYQQKPGQPPKLLIYYASTLVSGVPSRFKGSGSGTQFTLTISDLECANAATYYCQSKDGPTSSTYGAFGGGTEVVVR please.
1.2

Tell me measured MR (Molar Ratio) for MAB<BMP10>rRb-14C8 HC2/LC3 (p10th/p10ti)-IgG(SPA) (antibody, V domains shown, Recombinant rabbit monoclonal IgG; also called clone 14C8; VH-5/VL-5) VH: QSVEESGGRLVTPGTPLTLTCTASGIDLSRYAMTWVRQAPGKGLEWIGIIGASSGTWYASWAKGRFTIAKTSTTVDLRITSPTTEDTATYFCARDNGDSKDYAFDPWGPGTLVTVSS VL: IDMTQTPSPVSAAVGDTVTINCQASENIYSFLAWYQQKPGHSPNLLIYFASKLVSGVPSRFKGSGSGTQFTLTISDVQCDDAATYYCQQTYTYSNGDNPFGGGTEVVVK please.
1.3

Tell me measured MR (Molar Ratio) for 11C10 (antibody, V domains shown, Rabbit monoclonal IgG; also called clone 11C10; VH-3/VL-3) VH: QSLEESGGRLVTPGTALTVTCTVSGIDLSRNLMSWVRQAPGEGLEWIGSINFRNITWYASWAKGRFTISKTSTTVDLRISSPTTEDTATYFCARGVYVNSNGYYSLWGQGTPVTVSS VL: DIVMTQTPASVEAAVGGTVTINCQASQSVSNLLAWYQQKPGQPPKLLIYGASKLESGVPSRFKGSGSGTQFTLTINDLECDDAATYYCQTYWGGDGTSYLNPFGGGTEVVVK please.
1.3

Tell me measured MR (Molar Ratio) for MAB<BMP10>rRb-3H8 HC3/LC3 (p10qx/p10qy)-IgG(SPA) (antibody, V domains shown, Recombinant rabbit monoclonal IgG; also called clone 3H8; VH-7/VL-7) VH: QSVEESGGRLVTPGTPLTLTCTASGFSLSKYDMSWVRQAPGKGLEWIGAIGGRGVTDYTTWAKGRFTISKTATTVDLKMTSPTTEDTATYFCVRALAGDTLWGPGTLVTVSS VL: AQVLTQTASPVSAAVGSTVTINCQASQNIYKYNNLAWYQQKPGQPPKRLIYEASKLASGVPSRFSGSGSGTQFTLTISGVQCEDAATYYCQGTFECSSADCFGFGGGTEVVVK please.
1.3

Tell me measured MR (Molar Ratio) for MAB<BMP10>rRb-11A5 HC6/LC3.2 (p10se/p10sf)-IgG(SPA) (antibody, V domains shown, Recombinant rabbit monoclonal IgG; also called clone 11A5; VH-2/VL-2) VH: QSVEESGGRLVTPGTPLTLTCTASGFSLSSYAMSWVRQAPGKGLQFIGYISGGGSTYYASWVKGRFTISKTSTTVDLKLTSPTTEDTATYFCARGYPGYISGTWAVGQGTLVTVSS VL: AVLTQTPSPVSAAVGGTVSISCQSSQSVVNNNRCSWFQQKPGQPPKQLIYSASTLASGVPSRFKGSGSGTQFTLTISDVQCDDAATYYCLGDYVSYGDSAFGGGTEVVVK please.
1.4

Tell me measured MR (Molar Ratio) for MAB<BMP10>rRb-13G6 (p10tf/p10tg)-IgG(SPA) (antibody, V domains shown, Recombinant rabbit monoclonal IgG; also called clone 13G6; VH-4/VL-4) VH: QSLEESGGRLVTPGTPLTLTCTVSGFSLSNYAMSWVRQAPGMGLEYIGYISASGNTYYASWVKGRFTISKTSTTVDLKMTSPTTEDTATYFCARGYSGWISGTWAVGQGTLVTVSS VL: AVLTQTPSPVSAAVGGTVNIGCQSSQSVVNNNRLSWFQQRPGQPPKQLIYRASTLASGVPSRFKGSGSGTQFTLTISDVQCDDAATYYCLGDYVSYSEAAFGGGTEVVVK please.
1.3
